src = ChEMBL document CHEMBL3085673

- Measurement Notes: Intrinsic clearance in human liver microsomes
- Format: ADME
- Condition: read-out: CLH
Reported microsomal CLint values are given for each entry in this list.

Compound Structure | microsomal CLint, µL/min/mg
Cc1cc(NC(=O)C[N+]23CCC(CC2)[C@@H](OC(=O)C2(C4=CC=CC4)CCCCCC2)C3)no1 | 26
Cn1ccc(CCC[N+]23CCC(CC2)[C@@H](OC(=O)C2(C4=CC=CC4)CCCCCC2)C3)n1 | 63
O=C(C[N+]12CCC(CC1)[C@@H](OC(=O)C1(C3=CC=CC3)CCCCCC1)C2)Nc1ncns1 | 25
O=C(O[C@H]1C[N+]2(Cc3ccccc3)CCC1CC2)C1(C2=CC=CC2)CCCCCC1 | 68
O=C(O[C@H]1C[N+]2(Cc3ccn(-c4ccccc4)n3)CCC1CC2)C1(C2=CC=CC2)CCCCCC1 | 103
O=C(O[C@H]1C[N+]2(CCCc3ccncc3)CCC1CC2)C1(C2=CC=CC2)CCCCCC1 | 57
